target: UniProt P25103; assay: biochemical; settings: displacement of 125I-substance P; human NK1R in COS or CHO cells
Sequence (P25103 whole entry): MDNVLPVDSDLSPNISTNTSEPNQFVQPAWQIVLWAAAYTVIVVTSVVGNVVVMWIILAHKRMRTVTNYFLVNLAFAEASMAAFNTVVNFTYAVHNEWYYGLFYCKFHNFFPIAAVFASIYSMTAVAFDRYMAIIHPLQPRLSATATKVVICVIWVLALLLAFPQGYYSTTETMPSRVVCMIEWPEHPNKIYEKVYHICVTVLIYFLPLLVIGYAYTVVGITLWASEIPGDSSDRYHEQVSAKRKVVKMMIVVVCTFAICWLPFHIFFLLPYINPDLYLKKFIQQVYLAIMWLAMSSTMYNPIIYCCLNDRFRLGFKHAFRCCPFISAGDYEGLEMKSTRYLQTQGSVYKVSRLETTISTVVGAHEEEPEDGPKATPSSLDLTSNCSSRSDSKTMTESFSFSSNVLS
Where a name gives a salt, the structure may show the parent alone.
measurement.name: IC50 (nM)
Give a bare numeral; the unit nM is implied.

Observe how each entry below is paired with its result.
1. Cc1cc(C)cc(COCC(NCc2ccccc2)C(c2ccccc2)c2ccccc2)c1 (stereo not shown) ... 320
2. Cc1cc(C)cc(COCC(NCC(N)=O)C(c2ccccc2)c2ccccc2)c1 (stereo not shown) ... 3
3. Cc1cc(C)cc(COCC(NC=O)C(c2ccccc2)c2ccccc2)c1 (stereo not shown) ... 35

Name the reported IC50 value associated with the compound Cc1cc(C)cc(COCC(C(c2ccccc2)c2ccccc2)N(C)C)c1 (stereo not shown) [Example 2, tosylate salt]
2.4

Name the reported IC50 value associated with the compound Cc1cc(C)cc(COCC(NCCO)C(c2ccccc2)c2ccccc2)c1 (stereo not shown) [Example 22, oxalate salt]
45

Name the reported IC50 value associated with the compound NC(=O)CNC(COCc1cc(C(F)(F)F)cc(C(F)(F)F)c1)C(c1ccccc1)c1ccccc1 (stereo not shown) [Example 30, oxalate salt]
0.4

Name the reported IC50 value associated with the compound NC(COCc1cccc(Cl)c1)C(c1ccccc1)c1ccccc1 (stereo not shown) [Example 19, tosylate salt]
120

Name the reported IC50 value associated with the compound COc1ccccc1CNC(=O)C(N)C(c1ccccc1)c1ccccc1 (stereo not shown) [Example 4, tosylate salt]
700

Name the reported IC50 value associated with the compound CC(NC(COCc1cc(C(F)(F)F)cc(C(F)(F)F)c1)C(c1ccccc1)c1ccccc1)C(N)=O (single isomer, unassigned) [41 (diastereomer B), oxalate salt]
0.5

Name the reported IC50 value associated with the compound CN(C)C(=O)CNC(COCc1cc(C(F)(F)F)cc(C(F)(F)F)c1)C(c1ccccc1)c1ccccc1 (stereo not shown) [Example 48, hydrochloride salt]
10

Name the reported IC50 value associated with the compound O=C1CCC(C(=O)NC(COCc2cc(C(F)(F)F)cc(C(F)(F)F)c2)C(c2ccccc2)c2ccccc2)N1 (stereo not shown)
30

Name the reported IC50 value associated with the compound Cc1cc(C)cc(COCC(NCC(=O)NCC(N)=O)C(c2ccccc2)c2ccccc2)c1 (stereo not shown)
4

Name the reported IC50 value associated with the compound CC(=O)NC(COCc1cc(C)cc(C)c1)C(c1ccccc1)c1ccccc1 (stereo not shown)
70
